# test-system: UniProt:P21554
# Sequence (P21554 whole entry): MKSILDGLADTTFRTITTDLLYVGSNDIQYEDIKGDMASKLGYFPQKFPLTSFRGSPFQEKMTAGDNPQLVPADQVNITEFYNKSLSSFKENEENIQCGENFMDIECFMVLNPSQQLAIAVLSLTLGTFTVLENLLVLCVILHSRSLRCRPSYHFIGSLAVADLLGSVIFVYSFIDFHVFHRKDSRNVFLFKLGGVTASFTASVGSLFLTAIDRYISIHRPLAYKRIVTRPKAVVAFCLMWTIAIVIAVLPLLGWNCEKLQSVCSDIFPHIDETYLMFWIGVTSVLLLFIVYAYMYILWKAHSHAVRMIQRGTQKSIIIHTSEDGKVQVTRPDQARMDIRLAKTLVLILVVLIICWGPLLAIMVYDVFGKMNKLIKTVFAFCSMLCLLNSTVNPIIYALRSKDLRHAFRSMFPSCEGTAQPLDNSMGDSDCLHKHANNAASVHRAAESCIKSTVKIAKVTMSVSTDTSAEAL
measurement-type: IC50

Reported IC50 for "O=C(O)CCCCOc1ccc(C(=O)c2cccc3ccccc23)c2ccccc12" : what is it?
> 100 µM

Moving on to "COC(=O)CCCOc1ccc(C(=O)c2cccc3ccccc23)c2ccccc12"
14.1 µM

Next up: "O=C(c1cccc2ccccc12)c1ccc(OCCCCCCO)c2ccccc12"
> 10 µM

Same read-out for "O=C(c1cccc2ccccc12)c1ccc(OCCCCO)c2ccccc12" ?
17.9 µM

Follow-up item: "COC(=O)CCCCOc1ccc(C(=O)c2cccc3ccccc23)c2ccccc12"
> 100 µM

What do you have for "O=C(O)CCCOc1ccc(C(=O)c2cccc3ccccc23)c2ccccc12" ?
> 100 µM

Now try "O=C(c1cccc2ccccc12)c1ccc(OCCCCCO)c2ccccc12" .
> 10 µM

Thanks! And "O=C(c1cccc2ccccc12)c1ccc(OCCCO)c2ccccc12" ?
100 µM

Values from ChEMBL document CHEMBL4152361
